assay: Geometric mean of antibacterial activity (Gram -ve bacteria) of the compound; format: functional
Each entry below carries its reported Geometric mean.
API note: the answer field is a bare number with no unit suffix.

Lookup: Give the measured Geometric mean of `Cc1c(N2CCSCC2)c(N)cc2c(=O)c(C(=O)O)cn(C3CC3)c12` .
Found: 0.362

Lookup: Lookup `Cc1c(N2CCN(C)CC2)c([N+](=O)[O-])cc2c(=O)c(C(=O)O)cn(C3CC3)c12`
Found: 13.454

Lookup: Moving on to `Cc1c(N2CCC(O)CC2)c(N)cc2c(=O)c(C(=O)O)cn(C3CC3)c12`
Found: 0.495
